Ref: ChEMBL document CHEMBL2321831

Assay: AUC (0 to 8 hrs) in cynomolgus monkey serum at 5 mg/kg, iv
Format: ADME, organism-based, Macaca fascicularis, Plasma
Set-up: time < 8 hr, dose 5 mg/kg, route intravenous
measurement label: AUC(0-t) at 8 h (ng·h/mL)
Report only the number, with the unit ng·h/mL understood.

compound | measurement label | units | result number
COc1c(N2CC3(CC3)[C@](C)(N)C2)c(F)cc2c(=O)c(C(=O)O)cn([C@@H]3C[C@@H]3F)c12 | AUC(0-t) at 8 h | ng·h/mL | 23800

Entry COc1c(N2C[C@@H]3CCCN[C@@H]3C2)c(F)cc2c(=O)c(C(=O)O)cn(C3CC3)c12.Cl.O [MOXIFLOXACIN HYDROCHLORIDE HYDRATE] : reported AUC(0-t) at 8 h = ? 10900

I am curious: what AUC(0-t) at 8 h value has been reported for `COc1c(N2C[C@@H](N)C3(CC3)C2)c(F)cc2c(=O)c(C(=O)O)cn([C@@H]3C[C@@H]3F)c12.Cl.O` ? 19400
